molecular target: IL-12 (human, p35/p40 heterodimer) (Homo sapiens, UniProt P29459;P29460 SEQ:57-253,SEQ:23-328); assay: filter; 1X SHMCK, 0.1 mg/mL tRNA, RT; conditions: label: 5'-32P
Sequence (P29459 23-219, chain 1 of 2): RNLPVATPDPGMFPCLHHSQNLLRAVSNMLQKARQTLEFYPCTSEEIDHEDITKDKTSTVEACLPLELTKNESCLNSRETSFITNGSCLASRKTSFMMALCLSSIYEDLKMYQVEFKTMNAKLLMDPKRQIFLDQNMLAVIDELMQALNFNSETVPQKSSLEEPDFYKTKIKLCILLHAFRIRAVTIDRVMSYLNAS
Sequence (P29460 23-328, chain 2 of 2): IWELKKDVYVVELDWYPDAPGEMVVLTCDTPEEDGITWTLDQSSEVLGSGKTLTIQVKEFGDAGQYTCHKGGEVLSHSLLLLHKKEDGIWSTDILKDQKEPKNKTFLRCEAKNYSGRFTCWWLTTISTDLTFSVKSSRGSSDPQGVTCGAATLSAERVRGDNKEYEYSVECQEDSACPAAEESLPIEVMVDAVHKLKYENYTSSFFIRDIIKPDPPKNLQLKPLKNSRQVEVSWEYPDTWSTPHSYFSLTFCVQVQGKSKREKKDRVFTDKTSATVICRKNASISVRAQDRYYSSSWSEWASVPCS
quantity measured: pKd
Here pKd is given on a logarithmic scale as minus log10 of the concentration in mol/L.

Value of measured pKd for the entry AMX91-B8 (ssRNA, 2'-F all C and U (rRfY)) RNA: GGGAAAAGCGAAUCAUACACAAGAAUCCUGGCUUCGCAUAGUGUAUGGGUAGUACGACAGCGCGUGCUCCGCCAGAGACCAACCGAGAA : 6.39

Value of measured pKd for the entry AMX86-D11 (ssRNA, 2'-F all C and U (rRfY)) RNA: GGGAAAAGCGAAUCAUACACAAGAUAGCGUCUAUGAUGGCGGAGAAGCAAGUGUAGCAUAACAGGCUCCGCCAGAGACCAACCGAGAA : 6.94

Value of measured pKd for the entry AMX86-G10 (ssRNA, 2'-F all C and U (rRfY)) RNA: GGGAAAAGCGAAUCAUACACAAGAGUCAUGGCUUACAAUUGAAACAAGAGCUCGCGUGACACAUGCUCCGCCAGAGACCAACCGAGAA : 6.45

Value of measured pKd for the entry AMX84-C11 (ssRNA, 2'-F all C and U (rRfY)) RNA: GGGAAAAGCGAAUCAUACACAAGAAUGGUCGGAAUCUCUGGCGCCACGCUGAGUAUAGACGGAAGCUCCGCCAGAGACCAACCGAGAA : 6.54
